Test system: NCI-H23
Method: Growth inhibition of human NCI-H23 cells after 48 hrs by sulforhodamine B assay
Assay type: functional
Particulars: NCI-H23, 48 h
Measurement Name: LC50

Recorded LC50, per entry:
{"columns": ["Structure Notation", "LC50"],
 "data": [
  ["COc1cc(-c2nn(-c3cccc(NC(=O)Nc4cc(C(F)(F)F)cc(C(F)(F)F)c4)c3)cc2-c2ccncc2)ccc1Cl", "29.6 µM"],
  ["COc1cc(-c2nn(-c3cccc(NC(=O)c4cccc(C(F)(F)F)c4)c3)cc2-c2ccncc2)ccc1Cl", "> 50 µM"],
  ["O=C(Nc1cccc(-n2cc(-c3ccncc3)c(-c3ccc(Cl)c(O)c3)n2)c1)Nc1cccc(C(F)(F)F)c1", "> 32.5 µM"],
  ["O=C(Nc1cccc(-n2cc(-c3ccncc3)c(-c3ccc(Cl)c(O)c3)n2)c1)c1ccc(N2CCOCC2)c(C(F)(F)F)c1", "> 50 µM"]
]}

Moving on to another compound below.
Any idea what LC50 came out for `COc1cc(-c2nn(-c3cccc(NC(=O)Nc4cccc(C(F)(F)F)c4)c3)cc2-c2ccncc2)ccc1Cl` on NCI-H23?
> 50 µM

* * *

Test system: SNB-19
Method: Growth inhibition of human SNB19 cells after 48 hrs by sulforhodamine B assay
Type: functional
Particulars: SNB-19, 48 h
Measurement Name: GI50 (µM)
Entry rule: numbers only, all in µM.

{"columns": ["Structure Notation", "Measurement Name", "Experimental Result"],
 "data": [
  ["COc1cc(-c2nn(-c3cccc(NC(=O)c4ccccc4)c3)cc2-c2ccncc2)ccc1Cl", "GI50", 0.86],
  ["COc1cc(-c2nn(-c3cccc(NC(=O)c4cccc(C(F)(F)F)c4)c3)cc2-c2ccncc2)ccc1Cl", "GI50", 2.46],
  ["O=C(Nc1cccc(-n2cc(-c3ccncc3)c(-c3ccc(Cl)c(O)c3)n2)c1)Nc1ccc(Cl)c(Cl)c1", "GI50", 1.46],
  ["COc1cc(-c2nn(-c3cccc(NC(=O)Nc4ccc(Cl)c(C(F)(F)F)c4)c3)cc2-c2ccncc2)ccc1Cl", "GI50", 1.24]
]}

Lab note: need GI50 for `O=C(Nc1cccc(-n2cc(-c3ccncc3)c(-c3ccc(Cl)c(O)c3)n2)c1)Nc1cc(C(F)(F)F)cc(C(F)(F)F)c1` on SNB-19, anyone have it?
0.983

* * *

Tested on: SF-539
Method: Growth inhibition of human SF539 cells after 48 hrs by sulforhodamine B assay
Format: functional
Particulars: SF-539, 48 h
Measurement Name: LC50 (concentration killing 50% of cells)

{"columns": ["Structure Notation", "Target", "Experimental Result"],
 "data": [
  ["O=C(Nc1cccc(-n2cc(-c3ccncc3)c(-c3ccc(Cl)c(O)c3)n2)c1)Nc1ccc(Cl)c(Cl)c1", "SF-539", "> 32.5 µM"],
  ["COc1cc(-c2nn(-c3cccc(NC(=O)Nc4ccc(Cl)c(Cl)c4)c3)cc2-c2ccncc2)ccc1Cl", "SF-539", "> 50 µM"],
  ["COc1cc(-c2nn(-c3cccc(NC(=O)c4cccc(C(F)(F)F)c4)c3)cc2-c2ccncc2)ccc1Cl", "SF-539", "> 50 µM"]
]}

Tell me the measured LC50 (concentration killing 50% of cells) of `COc1cc(-c2nn(-c3cccc(NC(=O)c4ccccc4)c3)cc2-c2ccncc2)ccc1Cl` , please.
> 100 µM

Let us now turn to `O=C(Nc1cccc(-n2cc(-c3ccncc3)c(-c3ccc(Cl)c(O)c3)n2)c1)Nc1ccc(Cl)c(C(F)(F)F)c1`
> 32.5 µM
